Source of measurements: ChEMBL document CHEMBL1155050

molecular target: Sodium-dependent serotonin transporter (Homo sapiens, UniProt P31645); assay: Inhibition of [3H]5HT reuptake at human serotonin transporter expressed in HEK293 cells
Sequence (P31645 whole entry): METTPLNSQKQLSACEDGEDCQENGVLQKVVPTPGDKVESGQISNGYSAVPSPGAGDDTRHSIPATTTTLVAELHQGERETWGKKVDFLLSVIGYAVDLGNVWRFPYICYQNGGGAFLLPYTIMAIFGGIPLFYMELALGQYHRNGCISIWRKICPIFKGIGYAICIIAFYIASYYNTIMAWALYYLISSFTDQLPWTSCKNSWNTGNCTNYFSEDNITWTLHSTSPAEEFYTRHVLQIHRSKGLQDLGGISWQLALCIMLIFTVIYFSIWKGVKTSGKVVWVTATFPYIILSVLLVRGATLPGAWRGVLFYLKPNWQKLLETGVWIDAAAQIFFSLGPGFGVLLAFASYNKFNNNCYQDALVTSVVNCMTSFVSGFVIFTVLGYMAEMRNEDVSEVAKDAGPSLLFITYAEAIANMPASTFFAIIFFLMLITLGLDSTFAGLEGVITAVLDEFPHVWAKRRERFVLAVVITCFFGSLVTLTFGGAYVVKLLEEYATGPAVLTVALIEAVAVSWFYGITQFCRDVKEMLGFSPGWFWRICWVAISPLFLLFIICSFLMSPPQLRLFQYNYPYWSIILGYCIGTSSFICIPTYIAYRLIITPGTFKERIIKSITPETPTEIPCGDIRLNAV
Task for the reader: assign each of the following compounds its reported IC50.
Numbers only, in nM.

Examples with their reported IC50 follow.
compound: CSc1ccc(Sc2ccc(S(N)(=O)=O)cc2CN(C)C)cc1
endpoint_result: 20
--
compound: CN(C)Cc1cc(C(N)=O)ccc1Oc1ccc(OC(F)(F)F)cc1
endpoint_result: 3
--
compound: CN(C)Cc1ccccc1Oc1ccc(C#N)cc1
endpoint_result: 60
--
compound: CN(C)Cc1ccccc1Sc1cccc(C(F)(F)F)c1
endpoint_result: 40
--
compound: CSc1ccc(Sc2ccc(N(C)S(C)(=O)=O)cc2CN(C)C)cc1
endpoint_result: 5

Moving on to the next compound.
Supply IC50 value. Item: CN(C)Cc1ccccc1C(O)c1ccc(Cl)c(Cl)c1 (racemic) 250
